# assay system: T1, EsCas13d, nuclease-dead (Eubacterium siraeum, UniProt B0MS50, R295A;H300A;R849A;H854A)
# T1 sequence: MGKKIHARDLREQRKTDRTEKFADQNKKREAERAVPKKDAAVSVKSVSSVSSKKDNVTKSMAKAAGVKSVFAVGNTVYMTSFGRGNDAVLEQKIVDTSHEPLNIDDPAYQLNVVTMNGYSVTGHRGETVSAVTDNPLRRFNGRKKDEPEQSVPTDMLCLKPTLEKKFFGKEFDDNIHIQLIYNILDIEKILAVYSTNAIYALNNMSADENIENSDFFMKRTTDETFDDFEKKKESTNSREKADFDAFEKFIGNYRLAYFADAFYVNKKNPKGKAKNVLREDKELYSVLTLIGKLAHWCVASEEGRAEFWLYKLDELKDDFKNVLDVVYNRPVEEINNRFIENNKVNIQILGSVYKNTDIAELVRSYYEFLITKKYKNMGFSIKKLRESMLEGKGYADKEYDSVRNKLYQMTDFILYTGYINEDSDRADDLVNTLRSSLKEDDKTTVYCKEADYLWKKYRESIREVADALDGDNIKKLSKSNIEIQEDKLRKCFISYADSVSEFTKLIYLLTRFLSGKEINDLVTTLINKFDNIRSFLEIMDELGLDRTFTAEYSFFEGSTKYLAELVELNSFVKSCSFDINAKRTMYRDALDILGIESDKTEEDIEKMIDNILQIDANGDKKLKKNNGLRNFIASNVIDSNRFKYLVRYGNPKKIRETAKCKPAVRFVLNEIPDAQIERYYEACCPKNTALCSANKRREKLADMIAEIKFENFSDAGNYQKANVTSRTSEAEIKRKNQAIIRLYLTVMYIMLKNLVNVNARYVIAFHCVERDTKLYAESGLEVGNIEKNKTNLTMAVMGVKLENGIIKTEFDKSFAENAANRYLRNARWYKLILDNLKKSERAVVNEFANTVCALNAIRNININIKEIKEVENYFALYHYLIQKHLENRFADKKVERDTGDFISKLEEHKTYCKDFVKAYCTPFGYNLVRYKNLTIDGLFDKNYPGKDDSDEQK
# assay text: crRNA (strand 1, pre-loaded); Mg2+; 40 mM Tris-HCl pH 7.5, 150 mM NaCl, 6 mM MgCl2, 1 mM DTT, 0.1% Tween-20, 0.2 mg/ml BSA; 25 C; 10 min per concentration, then washed
# condition: tags: His6-TwinStrep-SUMO cleaved; N-terminal SNAP kept (SNAP-Surface 488); label: 3' end held by stalled T7 RNA polymerase
measured metric: log10(Kd) (log10 of the value in nM)
Log scale reminder: Kd in nM, then log10 taken.

Record excerpt, results attached:
target 1 insU 3' of 12,insU 3' of 7 (mixed) RNA 1: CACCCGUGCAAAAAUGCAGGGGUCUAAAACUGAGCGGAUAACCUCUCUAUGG RNA 2: GGGAAUGGAUCCACAUCUACGAAUUCGUACCAUAGAGAGGUUUAUCUCGCUCACCGAGAUCGGAAGAGCACACGU	1.21
target 3 G4C (mixed) RNA 1: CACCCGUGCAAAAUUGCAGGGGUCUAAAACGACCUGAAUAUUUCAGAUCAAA RNA 2: GGGAAUGGAUCCACAUCUACGAAUUCGUUUUUGAUCUGAAAUAUUCACGUCUGCAGAUCGGAAGAGCACACGU	1.03
target 2 MT 5'PFS GAG 3'PFS AAG (mixed) RNA 1: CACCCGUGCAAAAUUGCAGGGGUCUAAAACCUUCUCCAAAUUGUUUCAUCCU RNA 2: GGGAAUGGAUCCACAUCUACGAAUUCGAGAGGAUGAAACAAUUUGGAGAAGAAGAGAUCGGAAGAGCACACGU	0.75
target 1 insG 3' of 18,insG 3' of 18 (mixed) RNA 1: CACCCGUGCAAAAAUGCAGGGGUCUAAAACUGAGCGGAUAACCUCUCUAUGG RNA 2: GGGAAUGGAUCCACAUCUACGAAUUCGUACCAUAGGGAGAGGUUAUCCGCUCACCGAGAUCGGAAGAGCACACGU	1.68
target 1 MT 5'PFS GGG 3'PFS CUC (mixed) RNA 1: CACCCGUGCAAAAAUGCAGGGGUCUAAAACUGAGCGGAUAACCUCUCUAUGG RNA 2: GGGAAUGGAUCCACAUCUACGAAUUCGGGCCAUAGAGAGGUUAUCCGCUCACUCAGAUCGGAAGAGCACACGU	1.36

Incoming: Returns the measured log10(Kd) for the input binder. Input: target 1 MT 5'PFS GGC 3'PFS CGU (mixed) RNA 1: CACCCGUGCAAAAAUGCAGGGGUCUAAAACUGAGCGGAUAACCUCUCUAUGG RNA 2: GGGAAUGGAUCCACAUCUACGAAUUCGGCCCAUAGAGAGGUUAUCCGCUCACGUAGAUCGGAAGAGCACACGU
Outgoing: 1.03

Incoming: Can you handle target 2 MT 5'PFS ACU 3'PFS CUC (mixed) RNA 1: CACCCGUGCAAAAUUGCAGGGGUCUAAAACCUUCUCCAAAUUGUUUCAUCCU RNA 2: GGGAAUGGAUCCACAUCUACGAAUUCACUAGGAUGAAACAAUUUGGAGAAGCUCAGAUCGGAAGAGCACACGU next?
Outgoing: 0.73

Incoming: Can you handle target 1 insU 3' of 22,insG 3' of 2 (mixed) RNA 1: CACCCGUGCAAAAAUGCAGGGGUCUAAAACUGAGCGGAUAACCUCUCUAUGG RNA 2: GGGAAUGGAUCCACAUCUACGAAUUCGUACUCAUAGAGAGGUUAUCCGCUCGACCGAGAUCGGAAGAGCACACGU next?
Outgoing: 1.46

Incoming: Can you handle target 1 MT 5'PFS GUC 3'PFS UAC (mixed) RNA 1: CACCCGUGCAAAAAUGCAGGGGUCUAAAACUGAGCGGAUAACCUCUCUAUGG RNA 2: GGGAAUGGAUCCACAUCUACGAAUUCGUCCCAUAGAGAGGUUAUCCGCUCAUACAGAUCGGAAGAGCACACGU next?
Outgoing: 1.18

Incoming: Can you handle target 1 insC 3' of 16,insC 3' of 13 (mixed) RNA 1: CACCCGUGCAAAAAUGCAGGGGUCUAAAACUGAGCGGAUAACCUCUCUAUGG RNA 2: GGGAAUGGAUCCACAUCUACGAAUUCGUACCAUAGACGAGCGUUAUCCGCUCACCGAGAUCGGAAGAGCACACGU next?
Outgoing: 1.92

Incoming: Can you handle target 1 insU 3' of 17,insG 3' of 7 (mixed) RNA 1: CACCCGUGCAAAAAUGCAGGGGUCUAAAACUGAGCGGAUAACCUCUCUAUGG RNA 2: GGGAAUGGAUCCACAUCUACGAAUUCGUACCAUAGUAGAGGUUAUCGCGCUCACCGAGAUCGGAAGAGCACACGU next?
Outgoing: 1.14

Incoming: Can you handle target 1 insA 3' of 8,insA 3' of 7 (mixed) RNA 1: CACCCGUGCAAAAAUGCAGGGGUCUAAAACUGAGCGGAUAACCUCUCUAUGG RNA 2: GGGAAUGGAUCCACAUCUACGAAUUCGUACCAUAGAGAGGUUAUACACGCUCACCGAGAUCGGAAGAGCACACGU next?
Outgoing: 1.05
